biological target: Aldehyde dehydrogenase, mitochondrial (Mesocricetus auratus); experiment: Compound was evaluated for the inhibition of Hamster Liver mitochondrial ALDH-2
readout-name: pIC50
Keep it numeric: pIC50 is minus log10 of the concentration in mol/L.

The molecule listed as O=c1c(-c2ccc(O)cc2)coc2cc(OCC(O)CO)ccc12 (stereo unspecified) shows pIC50 equal to 7.00

* * *

biological target: Aldehyde dehydrogenase, mitochondrial (Mesocricetus auratus); assay: Inhibition of Hamster Liver mitochondrial ALDH-2
pIC50: −log10 of the molar value.
Binary call on pIC50: Fulfilled from 7 upward, Not fulfilled beneath that.

Completed entries (count: 4):
CCOc1ccc2c(=O)c(-c3ccc(O)cc3)coc2c1 : Fulfilled
O=c1c(-c2ccc(O)cc2)coc2cc(OCCC3OCCCO3)ccc12 : Not fulfilled
C=CCOc1ccc2c(=O)c(-c3ccc(O)cc3)coc2c1 : Not fulfilled
O=C(O)CCCCCCCCCOc1ccc2c(=O)c(-c3ccc(O)cc3)coc2c1 : Fulfilled

Q: Please indicate if the recorded pIC50 for O=C(O)CCCCCCOc1ccc2c(=O)c(-c3ccc(O)cc3)coc2c1 meets or exceeds 7.
Result: Fulfilled
